So basically: is melting point under 100 °C? Then True. Not under? Then False.

Illustrative cases are given below, each with its answer.
NC(=O)CN1Cc2ccccc2OC1=O    False
NCCc1c[nH]c2ccccc12    False
O=[N+]([O-])c1ccc2cccnc2c1    False

stdin: Could you please tell me whether melting point recorded for N#Cc1c(Cl)c(Cl)c(Cl)c(C#N)c1Cl is less than 100 °C?
stdout: False

stdin: Could you please tell me whether melting point recorded for C1=Cc2ccccc2C1 is less than 100 °C?
stdout: True

stdin: Could you please tell me whether melting point recorded for CCCCCCCCCCCCCCCCCC(=O)OCCC(C)C is less than 100 °C?
stdout: True

###

attribute-measured: log10 vapour pressure (mmHg)
Give the figure by itself; no unit, no explanation.

// worked examples, log10 vapour pressure (mmHg) included
CCOC(C)(C)CC    1.7
CCC1CCCC1    1.6
CC(Br)Br    1.41
ClC1=C(Cl)C2(Cl)C3C(Cl)C(Cl)C(Cl)C3C1(Cl)C2(Cl)Cl (centres undefined)    -6.02
CC(=O)CF    1.8
CC(C)Br    2.34
NCc1ccccc1    -0.185
CCc1ccc(C)nc1    0.155

# evaluate next
stdin: What value of measured log10 vapour pressure (mmHg) is listed for O=C(O)Cn1c(=O)sc2cccc(Cl)c21 ?
stdout: -9.12

###

experimental-parameters: fish
Readings of log10 BCF for the listed compounds
Give the figure by itself; no unit, no explanation.

Cc1c(Cl)c(Cl)c(C)c(Cl)c1Cl    3.62
C=C(C)[C@H]1Cc2c(ccc3c2O[C@@H]2COc4cc(OC)c(OC)cc4[C@@H]2C3=O)O1    1.41

stdin: What value of measured log10 BCF is listed for COP(=S)(OC)Oc1ccc(S(C)(=O)=O)c(C)c1 ?
stdout: 0.51

stdin: What value of measured log10 BCF is listed for c1ccc2ncccc2c1 ?
stdout: 0.58

stdin: What value of measured log10 BCF is listed for CCOP(=S)(NC(C)CC)Oc1cc(C)ccc1[N+](=O)[O-] (configuration not stated) ?
stdout: 2.46

stdin: What value of measured log10 BCF is listed for Brc1cc(Br)c(Oc2c(Br)c(Br)c(Br)c(Br)c2Br)cc1Br ?
stdout: 5.93

stdin: What value of measured log10 BCF is listed for COP(=S)(OC)SCN1C(=O)c2ccccc2C1=O ?
stdout: 0.26

stdin: What value of measured log10 BCF is listed for O=C(O)C(Br)C(Br)C(=O)O (configuration not stated) ?
stdout: 0.81

stdin: What value of measured log10 BCF is listed for CNC(=O)Oc1ccccc1C(C)C ?
stdout: 0.95

stdin: What value of measured log10 BCF is listed for ClC(Cl)=C(c1ccc(Cl)cc1)c1ccc(Cl)cc1 ?
stdout: 4.08

stdin: What value of measured log10 BCF is listed for FC(F)(F)c1ccc(Cl)c(Cl)c1 ?
stdout: 3.18

###

So basically: is log10 Henry constant (atm·m³/mol) under -4? Then t. Not under? Then f.

Illustrative cases are given below, each with its answer.
Cc1ccccc1    f
ClC(Cl)Br    f
Nc1cccc2ccccc12    t
COC(F)(F)C(Cl)Cl    f
CCC(C)(C)OC    f
CN    t
Clc1cc2oc3cc(Cl)c(Cl)cc3c2cc1Cl    t
Clc1cc(Cl)c(Cl)c(-c2c(Cl)ccc(Cl)c2Cl)c1    t

stdin: Could you please tell me whether log10 Henry constant (atm·m³/mol) recorded for CC[N+](=O)[O-] is less than -4?
stdout: t

stdin: Could you please tell me whether log10 Henry constant (atm·m³/mol) recorded for c1ccc(-c2ccccc2)cc1 is less than -4?
stdout: f
